tested.target: CDK2/CycA2 (Homo sapiens, UniProt P24941)
test.protocol: Kinase profiling
Assay type: biochemical
measurement.parameters: 10 semi-logarithmic dilutions from 50 μM, singlicate
pIC50: −log10 of the molar value.
Answer 0 (no) if pIC50 is under 7, and 1 (yes) if it is 7 or more.

{"compound": "CC(O)CCC1CCN(c2ccc(Nc3ncc4ccc(=O)n([C@@H]5CC6CCC5C6)c4n3)cc2)CC1 (stereo partly shown)", "group": "0 (no)"}
{"compound": "O=c1ccc2cnc(Nc3ccc(N4CCC(CCCO)CC4)cc3F)nc2n1[C@@H]1CC2CCC1C2 (stereo partly shown)", "group": "0 (no)"}
{"compound": "O=c1ccc2cnc(Nc3ccc(N4CCNCC4)cc3)nc2n1[C@@H]1CC2CCC1C2 (stereo partly shown)", "group": "1 (yes)"}
{"compound": "CC(O)CCN1CCN(c2ccc(Nc3ncc4ccc(=O)n([C@@H]5CC6CCC5C6)c4n3)cc2)CC1 (stereo partly shown)", "group": "1 (yes)"}
{"compound": "O=c1ccc2cnc(Nc3ccc(N4CCC(CCCO)CC4)c(F)c3)nc2n1[C@@H]1CC2CCC1C2 (stereo partly shown)", "group": "0 (no)"}
{"compound": "CC(=O)c1c(C)c2cnc(Nc3ccc(N4CCNCC4)cc3)nc2n([C@@H]2CC3CCC2C3)c1=O (stereo partly shown)", "group": "0 (no)"}
{"compound": "O=c1ccc2cnc(Nc3ccc(N4CCC(OCC5(CO)COC5)CC4)cc3)nc2n1[C@@H]1CC2CCC1C2 (stereo partly shown)", "group": "1 (yes)"}
{"compound": "CC(=O)c1c(C)c2cnc(Nc3ccc(N4CCC(CCCO)CC4)cc3)nc2n(C2CCCC2)c1=O", "group": "0 (no)"}
{"compound": "CC(=O)c1c(C)c2cnc(Nc3ccc(N4CCC(CCCO)CC4)cc3)nc2n([C@@H]2CC3CCC2C3)c1=O (stereo partly shown)", "group": "0 (no)"}
{"compound": "CC(O)COC1CCN(c2ccc(Nc3ncc4ccc(=O)n([C@@H]5CC6CCC5C6)c4n3)cc2)CC1 (stereo partly shown)", "group": "0 (no)"}

----------
tested.target: CDK1/CycE1 (Homo sapiens, UniProt P06493)
Sequence (P06493 whole entry): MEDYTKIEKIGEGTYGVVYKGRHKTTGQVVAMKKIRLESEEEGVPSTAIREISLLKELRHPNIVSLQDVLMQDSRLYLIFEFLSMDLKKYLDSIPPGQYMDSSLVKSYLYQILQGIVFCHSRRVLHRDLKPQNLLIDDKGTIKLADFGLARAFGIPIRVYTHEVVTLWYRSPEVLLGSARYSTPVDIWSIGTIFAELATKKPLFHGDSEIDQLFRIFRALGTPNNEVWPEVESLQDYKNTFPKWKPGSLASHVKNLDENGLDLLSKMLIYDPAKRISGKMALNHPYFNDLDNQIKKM
Sequence (P24864 whole entry partner): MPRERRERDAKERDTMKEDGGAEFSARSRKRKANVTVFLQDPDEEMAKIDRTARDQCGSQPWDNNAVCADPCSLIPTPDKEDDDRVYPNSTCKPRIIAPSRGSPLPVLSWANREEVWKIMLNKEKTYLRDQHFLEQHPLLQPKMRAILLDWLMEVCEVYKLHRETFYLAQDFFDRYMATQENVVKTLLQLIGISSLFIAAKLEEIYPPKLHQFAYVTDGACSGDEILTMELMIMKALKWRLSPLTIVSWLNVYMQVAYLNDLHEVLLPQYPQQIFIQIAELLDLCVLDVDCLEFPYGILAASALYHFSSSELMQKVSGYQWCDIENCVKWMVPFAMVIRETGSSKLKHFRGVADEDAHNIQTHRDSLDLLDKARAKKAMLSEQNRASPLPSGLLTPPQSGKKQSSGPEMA
test.protocol: Kinase profiling
Assay type: biochemical
measurement.parameters: 10 semi-logarithmic dilutions from 50 μM, singlicate
pIC50: −log10 of the molar value.
List of pIC50 values.

{"compound": "O=c1ccc2cnc(Nc3ccc(N4CCC(OCC5(CO)COC5)CC4)cc3)nc2n1[C@@H]1CC2CCC1C2 (stereo partly shown)", "pIC50": 6.28}
{"compound": "O=c1ccc2cnc(Nc3ccc(N4CCNCC4)cc3)nc2n1[C@@H]1CC2CCC1C2 (stereo partly shown)", "pIC50": 7.39}
{"compound": "O=c1ccc2cnc(Nc3ccc(N4CCC(CCCO)CC4)cc3F)nc2n1[C@@H]1CC2CCC1C2 (stereo partly shown)", "pIC50": 4.84}
{"compound": "O=c1ccc2cnc(Nc3ccc(N4CCC(CCCO)CC4)c(F)c3)nc2n1[C@@H]1CC2CCC1C2 (stereo partly shown)", "pIC50": 5.53}

----------
test.protocol: Metabolic stability in hepatocytes
Type: in vitro ADME
measurement.parameters: human, 60-90 min test, read-out: Metabolic stability, Human hepatocytes: Clearance

{"compound": "CC(O)CCC1CCN(c2ccc(Nc3ncc4ccc(=O)n([C@@H]5CC6CCC5C6)c4n3)cc2)CC1 (stereo partly shown)", "units.symbol": "µL/min/1e6 cells", "rel": "<", "hepatocyte CLint": 6.4}
{"compound": "CC(=O)c1c(C)c2cnc(Nc3ccc(N4CCNCC4)cn3)nc2n(C2CCCC2)c1=O [Palbociclib, reference compound]", "units.symbol": "µL/min/1e6 cells", "rel": "<", "hepatocyte CLint": 6.4}
{"compound": "CC(O)COC1CCN(c2ccc(Nc3ncc4ccc(=O)n([C@@H]5CC6CCC5C6)c4n3)cc2)CC1 (stereo partly shown)", "units.symbol": "µL/min/1e6 cells", "rel": "=", "hepatocyte CLint": 49}
{"compound": "CC(=O)c1c(C)c2cnc(Nc3ccc(N4CCC(CCCO)CC4)cc3)nc2n(C2CCCC2)c1=O", "units.symbol": "µL/min/1e6 cells", "rel": "=", "hepatocyte CLint": 41.7}
